Experiment: Half life in iv/po dosed Sprague-Dawley rat
Format: ADME, organism-based
Details: in vivo
REPORTED METRIC: half-life (h)
Answer format: numeric, h implied, no suffix.

For reference, reported half-life for CN(C)[C@H]1CCc2cc(N3CC[C@H](NS(=O)(=O)c4ccc5cc(Cl)ccc5c4)C3=O)ccc21 stands at 4.4

For reference, reported half-life for O=C1[C@@H](NS(=O)(=O)/C=C/c2ccc(Cl)s2)CCN1c1ccc(C2CCCN2)cc1F (mixture of isomers) stands at 3.4

For reference, reported half-life for CN1CCCC1c1ccc(N2CC[C@H](NS(=O)(=O)/C=C/c3ccc(Cl)s3)C2=O)c(F)c1 (mixture of isomers) stands at 1.4

For reference, reported half-life for O=C1[C@@H](NS(=O)(=O)c2ccc3cc(Cl)ccc3c2)CCN1c1ccc(C2CCCN2)cc1F (mixture of isomers) stands at 9

###

Provide the recorded Vd for the entries that follow.
Assay: Volume of distribution at steady state in iv/po dosed Sprague-Dawley rat
Type: ADME, organism-based
Settings: in vivo, read-out: Vdss
Answer format: numeric, L/kg implied, no suffix.

For reference, reported Vd for O=C1[C@@H](NS(=O)(=O)c2ccc3cc(Cl)ccc3c2)CCN1c1ccc([C@H]2CCCN2)cc1F stands at 1.9

For reference, reported Vd for O=C1[C@@H](NS(=O)(=O)c2ccc3cc(Cl)ccc3c2)CCN1c1ccc([C@@H]2CCCN2)cc1F stands at 1.7

For reference, reported Vd for CNC1CCc2cc(N3CC[C@H](NS(=O)(=O)c4ccc5cc(Cl)ccc5c4)C3=O)ccc21 (mixture of isomers) stands at 2.4

For reference, reported Vd for CN(C)C1CCc2cc(N3CC[C@H](NS(=O)(=O)/C=C/c4ccc(Cl)s4)C3=O)ccc21 (mixture of isomers) stands at 1.1

For reference, reported Vd for O=C1[C@@H](NS(=O)(=O)c2ccc3c(Cl)c[nH]c3c2)CCN1c1ccc(C2CCCN2)cc1F (mixture of isomers) stands at 0.8

For reference, reported Vd for O=C1[C@@H](NS(=O)(=O)c2ccc3cc(Cl)ccc3c2)CCN1c1ccc(C2CCCN2)cc1F (mixture of isomers) stands at 1.9

For reference, reported Vd for O=C1[C@@H](NS(=O)(=O)/C=C/c2ccc(Cl)s2)CCN1c1ccc(C2CCCN2)cc1F (mixture of isomers) stands at 0.7

###

Provide the recorded clearance for the entries that follow.
Test: Plasma clearance in iv/po dosed Sprague-Dawley rat
Type: ADME, organism-based
Answer format: numeric, mL/min/kg implied, no suffix.

For reference, reported clearance for O=C1[C@@H](NS(=O)(=O)c2ccc3cc(Cl)ccc3c2)CCN1c1ccc(C2CCCN2)cc1F (mixture of isomers) stands at 2.7

For reference, reported clearance for O=C1[C@@H](NS(=O)(=O)c2ccc3cc(Cl)ccc3c2)CCN1c1ccc([C@H]2CCCN2)cc1F stands at 2.6

For reference, reported clearance for CNC1CCc2cc(N3CC[C@H](NS(=O)(=O)c4ccc5cc(Cl)ccc5c4)C3=O)ccc21 (mixture of isomers) stands at 2.5
